# system tested: NUAK1 (human) (UniProt O60285)
# Sequence (O60285 whole entry, looked up): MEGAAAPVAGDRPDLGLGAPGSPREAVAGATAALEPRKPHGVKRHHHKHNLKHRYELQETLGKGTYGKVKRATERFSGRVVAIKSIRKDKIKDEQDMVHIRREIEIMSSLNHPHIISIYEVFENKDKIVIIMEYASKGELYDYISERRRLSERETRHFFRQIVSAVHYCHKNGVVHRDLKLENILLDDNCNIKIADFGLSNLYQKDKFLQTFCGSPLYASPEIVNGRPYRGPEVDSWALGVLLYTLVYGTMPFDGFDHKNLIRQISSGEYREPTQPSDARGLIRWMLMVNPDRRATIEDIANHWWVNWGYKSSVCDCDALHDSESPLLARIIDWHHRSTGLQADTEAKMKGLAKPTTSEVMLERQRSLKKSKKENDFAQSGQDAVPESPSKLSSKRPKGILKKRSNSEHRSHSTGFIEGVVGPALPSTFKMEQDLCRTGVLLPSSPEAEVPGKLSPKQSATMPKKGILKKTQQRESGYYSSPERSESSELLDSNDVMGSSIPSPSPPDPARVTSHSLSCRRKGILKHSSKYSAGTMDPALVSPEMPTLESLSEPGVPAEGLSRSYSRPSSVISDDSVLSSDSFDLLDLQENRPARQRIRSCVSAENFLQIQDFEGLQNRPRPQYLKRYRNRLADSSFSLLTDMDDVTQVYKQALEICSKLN
# procedure details: radiometric filter-binding kinase assay, Kinase HotSpot
# test context: compound 0.5 µM; ATP 10 µM
measured attribute: residual activity (%)
Field: numeric (%). Do not append units.

Would you please look over these solved cases?
Can you share its residual activity? I mean this molecule: `CCN1/C(=C/C(C)=O)Sc2ccc(OC)cc21`
93.4

Can you share its residual activity? I mean this molecule: `C#Cc1cccc(Nc2ncnc3cc(OCCOC)c(OCCOC)cc23)c1`
98

Can you share its residual activity? I mean this molecule: `Clc1ccc(Nc2nnc(Cc3ccncc3)c3ccccc23)cc1`
112

Can you share its residual activity? I mean this molecule: `O=c1cc(N2CCNCC2)oc2c(-c3ccccc3)cccc12`
95.5

Can you share its residual activity? I mean this molecule: `COc1ccc(-c2cnc3c(-c4ccsc4)cnn3c2)cc1`
77.9

Continuing:
Can you share its residual activity? I mean this molecule: O=C(NC(NC(=S)Nc1ccc(F)c([N+](=O)[O-])c1)C(Cl)(Cl)Cl)C(c1ccccc1)c1ccccc1 (stereo not given)
95.3

====

# system tested: CDK1 CCNA2 (human) (UniProt P06493+P20248)
# Sequence (P06493 whole entry, looked up): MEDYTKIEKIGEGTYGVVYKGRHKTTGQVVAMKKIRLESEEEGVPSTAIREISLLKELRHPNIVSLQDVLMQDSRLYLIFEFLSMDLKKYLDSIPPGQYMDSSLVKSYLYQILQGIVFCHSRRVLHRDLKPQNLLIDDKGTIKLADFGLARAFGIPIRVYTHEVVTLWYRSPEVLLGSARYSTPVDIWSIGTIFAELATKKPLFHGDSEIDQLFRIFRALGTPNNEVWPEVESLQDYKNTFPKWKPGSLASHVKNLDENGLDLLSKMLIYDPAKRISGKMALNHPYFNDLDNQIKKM
# Sequence (P20248 whole entry, looked up): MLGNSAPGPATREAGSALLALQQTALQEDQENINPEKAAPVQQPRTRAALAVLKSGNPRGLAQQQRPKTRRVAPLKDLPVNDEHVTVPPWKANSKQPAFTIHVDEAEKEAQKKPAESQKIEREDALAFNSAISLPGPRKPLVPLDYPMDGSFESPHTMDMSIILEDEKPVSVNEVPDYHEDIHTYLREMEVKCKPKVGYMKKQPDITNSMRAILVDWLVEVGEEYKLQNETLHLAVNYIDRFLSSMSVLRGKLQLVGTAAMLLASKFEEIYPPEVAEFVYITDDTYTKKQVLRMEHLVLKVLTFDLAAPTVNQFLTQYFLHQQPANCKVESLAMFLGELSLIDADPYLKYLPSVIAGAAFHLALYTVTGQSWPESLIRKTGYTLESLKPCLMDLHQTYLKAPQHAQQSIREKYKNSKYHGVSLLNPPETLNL
# procedure details: radiometric filter-binding kinase assay, Kinase HotSpot
# test context: compound 0.5 µM; ATP 10 µM
Returns T if the recorded residual activity is greater than or equal to 90%, and F otherwise.

Take a look at these entries with their results.
Assess whether reported residual activity for `NC(=O)c1ccc(-c2nc(-c3ccccn3)c(-c3ccc4c(c3)OCCO4)[nH]2)cc1` sits at 90% or higher.
T

Assess whether reported residual activity for `Clc1ccc(Nc2nnc(Cc3ccncc3)c3ccccc23)cc1` sits at 90% or higher.
T

Assess whether reported residual activity for `Nc1n[nH]c2nnc(-c3c(-c4ccccc4)nn4ccccc34)cc12` sits at 90% or higher.
T

Assess whether reported residual activity for `CC(C)n1cnc2c(Nc3cccc(Cl)c3)nc(NCCO)nc21` sits at 90% or higher.
F

Assess whether reported residual activity for `Cc1cc(Nc2cc(N3CCN(C)CC3)nc(Sc3ccc(NC(=O)C4CC4)cc3)n2)[nH]n1` sits at 90% or higher.
T

Assess whether reported residual activity for `CCN1/C(=C/C(C)=O)Sc2ccc(OC)cc21` sits at 90% or higher.
T

Assess whether reported residual activity for `C#Cc1cccc(Nc2ncnc3cc(OCCOC)c(OCCOC)cc23)c1` sits at 90% or higher.
T

Assess whether reported residual activity for `O=C1Nc2ccccc2/C1=C\c1c(Cl)[nH]c2ccccc12` sits at 90% or higher.
T

Assess whether reported residual activity for `Nc1nc(Nc2ccc(S(N)(=O)=O)cc2)nn1C(=O)c1c(F)cccc1F` sits at 90% or higher.
F

Assess whether reported residual activity for `O=c1cc(N2CCNCC2)oc2c(-c3ccccc3)cccc12` sits at 90% or higher.
F

Continuing:
Assess whether reported residual activity for `COc1cc2ncnc(Nc3ccc(F)c(Cl)c3)c2cc1OCCCN1CCOCC1` sits at 90% or higher.
T

Assess whether reported residual activity for `Cc1cc2ncc(-c3ccccc3)nc2cc1C` sits at 90% or higher.
T

Assess whether reported residual activity for `NC(=O)c1ccc(N(C(N)=O)c2c(F)cccc2F)nc1-c1ccc(F)cc1F` sits at 90% or higher.
T

Assess whether reported residual activity for `O=C1Cc2c([nH]c3ccc([N+](=O)[O-])cc23)-c2ccccc2N1` sits at 90% or higher.
F

====

# system tested: NTRK2 (human)
# procedure details: radiometric filter-binding kinase assay, Kinase HotSpot
# test context: compound 0.5 µM; ATP 10 µM
measured attribute: residual activity (%)
Field: numeric (%). Do not append units.

Would you please look over these solved cases?
Can you share its residual activity? I mean this compound: `O=c1cc(N2CCNCC2)oc2c(-c3ccccc3)cccc12`
102

Can you share its residual activity? I mean this compound: `Nc1n[nH]c2nnc(-c3c(-c4ccccc4)nn4ccccc34)cc12`
89.7

Can you share its residual activity? I mean this compound: `Cc1cc2ncc(-c3ccccc3)nc2cc1C`
103

Continuing:
Can you share its residual activity? I mean this compound: `Clc1ccc(Nc2nnc(Cc3ccncc3)c3ccccc23)cc1`
102

Can you share its residual activity? I mean this compound: O=C(NC(NC(=S)Nc1ccc(F)c([N+](=O)[O-])c1)C(Cl)(Cl)Cl)C(c1ccccc1)c1ccccc1 (stereo not given)
97.7

====

# system tested: BTK (human)
# procedure details: radiometric filter-binding kinase assay, Kinase HotSpot
# test context: compound 0.5 µM; ATP 10 µM
measured attribute: residual activity (%)
Field: numeric (%). Do not append units.

Can you share its residual activity? I mean this molecule: `CC(C)[C@H](CO)Nc1nc(Nc2cccc(Cl)c2)c2ncn(C(C)C)c2n1`
75.6

Can you share its residual activity? I mean this molecule: `Nc1nc(Nc2ccc(S(N)(=O)=O)cc2)nn1C(=O)c1c(F)cccc1F`
87.1

Can you share its residual activity? I mean this molecule: `Cc1cc2ncc(-c3ccccc3)nc2cc1C`
94.8

Can you share its residual activity? I mean this molecule: `O=C1Cc2c([nH]c3ccc([N+](=O)[O-])cc23)-c2ccccc2N1`
98.2

Can you share its residual activity? I mean this molecule: O=C(NC(NC(=S)Nc1ccc(F)c([N+](=O)[O-])c1)C(Cl)(Cl)Cl)C(c1ccccc1)c1ccccc1 (stereo not given)
104

Can you share its residual activity? I mean this molecule: `CCCNC(=O)Nc1ccc(Oc2ncnc3cc(OC)c(OC)cc23)cc1Cl`
98.6

Can you share its residual activity? I mean this molecule: `CC(C)(C)c1nc2c3ccc(F)cc3c3c(=O)[nH]ccc3c2[nH]1`
80.5

Can you share its residual activity? I mean this molecule: `NC(=O)c1ccc(N(C(N)=O)c2c(F)cccc2F)nc1-c1ccc(F)cc1F`
98.2

Can you share its residual activity? I mean this molecule: `COc1cc2ncnc(Nc3ccc(F)c(Cl)c3)c2cc1OCCCN1CCOCC1`
60.6

Can you share its residual activity? I mean this molecule: `COc1ccc(-c2cnc3c(-c4ccsc4)cnn3c2)cc1`
97.1

====

# system tested: FER (human)
# procedure details: radiometric filter-binding kinase assay, Kinase HotSpot
# test context: compound 0.5 µM; ATP 10 µM
measured attribute: residual activity (%)
Field: numeric (%). Do not append units.

Would you please look over these solved cases?
Can you share its residual activity? I mean this molecule: `Cc1cc2ncc(-c3ccccc3)nc2cc1C`
91

Can you share its residual activity? I mean this molecule: CSc1nc(-c2ccc(F)cc2)c(-c2ccnc(NC(C)c3ccccc3)c2)[nH]1 (configuration not stated)
97.2

Can you share its residual activity? I mean this molecule: `Nc1nc(Nc2ccc(S(N)(=O)=O)cc2)nn1C(=O)c1c(F)cccc1F`
82

Can you share its residual activity? I mean this molecule: `O=c1cc(-c2cccc3c2Sc2ccccc2S3)oc(N2CCOCC2)c1`
103

Can you share its residual activity? I mean this molecule: CS(=O)c1ccc(-c2nc(-c3ccc(F)cc3)c(-c3ccncc3)[nH]2)cc1 (configuration not stated)
95

Continuing:
Can you share its residual activity? I mean this molecule: `NC(=O)c1ccc(N(C(N)=O)c2c(F)cccc2F)nc1-c1ccc(F)cc1F`
95.6

Can you share its residual activity? I mean this molecule: `COc1cc2ncnc(Nc3ccc(F)c(Cl)c3)c2cc1OCCCN1CCOCC1`
94.1

Can you share its residual activity? I mean this molecule: O=C(NC(NC(=S)Nc1ccc(F)c([N+](=O)[O-])c1)C(Cl)(Cl)Cl)C(c1ccccc1)c1ccccc1 (configuration not stated)
104

Can you share its residual activity? I mean this molecule: `CCN1/C(=C/C(C)=O)Sc2ccc(OC)cc21`
87.9

====

# system tested: MINK1 (human) (UniProt Q8N4C8)
# Sequence (Q8N4C8 whole entry, looked up): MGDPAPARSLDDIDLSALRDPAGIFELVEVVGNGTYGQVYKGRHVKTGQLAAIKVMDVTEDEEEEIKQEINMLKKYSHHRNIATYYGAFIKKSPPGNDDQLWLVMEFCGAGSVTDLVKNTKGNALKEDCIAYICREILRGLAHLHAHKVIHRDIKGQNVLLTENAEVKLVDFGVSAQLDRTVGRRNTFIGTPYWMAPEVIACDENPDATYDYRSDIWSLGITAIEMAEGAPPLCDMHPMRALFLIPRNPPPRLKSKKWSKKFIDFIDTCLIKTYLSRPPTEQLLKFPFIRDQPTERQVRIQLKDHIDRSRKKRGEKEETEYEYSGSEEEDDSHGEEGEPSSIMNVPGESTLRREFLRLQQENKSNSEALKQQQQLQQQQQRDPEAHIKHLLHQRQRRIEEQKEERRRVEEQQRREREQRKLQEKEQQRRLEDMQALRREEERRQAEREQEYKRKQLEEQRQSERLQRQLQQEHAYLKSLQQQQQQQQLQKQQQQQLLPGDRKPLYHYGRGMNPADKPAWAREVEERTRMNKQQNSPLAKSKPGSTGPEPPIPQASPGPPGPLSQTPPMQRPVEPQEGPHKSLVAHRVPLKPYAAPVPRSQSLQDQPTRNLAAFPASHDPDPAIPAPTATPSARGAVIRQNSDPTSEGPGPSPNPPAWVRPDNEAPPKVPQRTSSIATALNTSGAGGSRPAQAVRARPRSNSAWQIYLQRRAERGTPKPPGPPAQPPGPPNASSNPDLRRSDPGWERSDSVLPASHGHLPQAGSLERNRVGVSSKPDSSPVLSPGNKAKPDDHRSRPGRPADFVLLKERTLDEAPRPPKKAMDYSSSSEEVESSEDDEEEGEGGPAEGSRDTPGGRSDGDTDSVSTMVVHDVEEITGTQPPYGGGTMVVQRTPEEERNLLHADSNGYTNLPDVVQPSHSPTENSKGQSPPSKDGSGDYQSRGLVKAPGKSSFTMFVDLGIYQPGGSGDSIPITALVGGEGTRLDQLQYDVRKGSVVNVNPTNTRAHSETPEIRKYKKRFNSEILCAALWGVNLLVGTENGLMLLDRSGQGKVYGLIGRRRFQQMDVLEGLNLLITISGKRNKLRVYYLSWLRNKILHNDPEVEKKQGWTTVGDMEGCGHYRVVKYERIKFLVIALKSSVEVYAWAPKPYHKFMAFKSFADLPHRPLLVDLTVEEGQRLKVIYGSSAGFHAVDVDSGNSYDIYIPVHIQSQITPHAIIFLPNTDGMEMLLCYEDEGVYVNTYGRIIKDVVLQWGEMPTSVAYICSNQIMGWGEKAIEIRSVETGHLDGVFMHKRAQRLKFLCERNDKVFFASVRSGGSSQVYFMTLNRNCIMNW
# procedure details: radiometric filter-binding kinase assay, Kinase HotSpot
# test context: compound 0.5 µM; ATP 10 µM
Returns fulfilled if the recorded residual activity is greater than or equal to 90%, and not fulfilled otherwise.

Take a look at these entries with their results.
Assess whether reported residual activity for O=C(NC(NC(=S)Nc1ccc(F)c([N+](=O)[O-])c1)C(Cl)(Cl)Cl)C(c1ccccc1)c1ccccc1 (stereo not given) sits at 90% or higher.
fulfilled

Assess whether reported residual activity for `CC(C)(C)c1nc2c3ccc(F)cc3c3c(=O)[nH]ccc3c2[nH]1` sits at 90% or higher.
not fulfilled

Assess whether reported residual activity for `O=C1Nc2ccccc2/C1=C\c1c(Cl)[nH]c2ccccc12` sits at 90% or higher.
fulfilled

Assess whether reported residual activity for `Cc1ccc(NC(=O)c2ccc(CN3CCN(C)CC3)cc2)cc1Nc1nc(-c2cccnc2)cs1` sits at 90% or higher.
not fulfilled

Assess whether reported residual activity for `CC(C)n1cnc2c(Nc3cccc(Cl)c3)nc(NCCO)nc21` sits at 90% or higher.
not fulfilled

Assess whether reported residual activity for CS(=O)c1ccc(-c2nc(-c3ccc(F)cc3)c(-c3ccncc3)[nH]2)cc1 (stereo not given) sits at 90% or higher.
fulfilled

Assess whether reported residual activity for `O=C1Nc2cc(Br)ccc2/C1=C1/Nc2ccccc2/C1=N\O` sits at 90% or higher.
not fulfilled

Please turn your attention to the following entry.
Assess whether reported residual activity for `Clc1ccc(Nc2nnc(Cc3ccncc3)c3ccccc23)cc1` sits at 90% or higher.
fulfilled
